Origin of values: patent US20240116985A1

Biological target: full-length beta-Catenin (Uniprot ID P35222) (Homo sapiens)
Construct: 10 nM full-length beta-Catenin (Uniprot ID P35222)
Sequence (P35222 1-781): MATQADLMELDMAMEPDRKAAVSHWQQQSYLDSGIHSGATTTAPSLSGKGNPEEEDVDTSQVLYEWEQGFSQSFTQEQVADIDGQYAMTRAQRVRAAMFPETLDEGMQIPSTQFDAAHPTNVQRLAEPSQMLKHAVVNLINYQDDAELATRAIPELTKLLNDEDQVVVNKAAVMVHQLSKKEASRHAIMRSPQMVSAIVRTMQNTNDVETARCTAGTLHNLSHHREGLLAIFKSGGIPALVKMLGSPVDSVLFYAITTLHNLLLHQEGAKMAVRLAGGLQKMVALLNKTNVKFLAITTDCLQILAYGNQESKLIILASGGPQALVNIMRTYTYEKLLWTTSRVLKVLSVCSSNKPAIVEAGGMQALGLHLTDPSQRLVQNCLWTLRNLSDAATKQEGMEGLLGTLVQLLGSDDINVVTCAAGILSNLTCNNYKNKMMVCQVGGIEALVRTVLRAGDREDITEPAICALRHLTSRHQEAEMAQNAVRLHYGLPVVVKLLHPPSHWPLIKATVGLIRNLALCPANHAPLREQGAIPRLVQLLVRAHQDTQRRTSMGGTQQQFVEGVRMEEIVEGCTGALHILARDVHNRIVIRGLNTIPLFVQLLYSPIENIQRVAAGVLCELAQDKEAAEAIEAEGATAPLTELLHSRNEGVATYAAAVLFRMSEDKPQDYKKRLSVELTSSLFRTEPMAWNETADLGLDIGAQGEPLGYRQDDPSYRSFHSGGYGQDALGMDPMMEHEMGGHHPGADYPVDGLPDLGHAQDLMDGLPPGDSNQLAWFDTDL
Test: Fluorescence polarization IC50 (beta-catenin / 5FAM-TCF4 10-53 competition)
Format: binding
Details: fluorescence polarization; read-out: beta-Catenin FP IC50
# maps each entry to its IC50

molecule: CC(=O)N1CCC[C@]12CC=CCCCC1(CCCC=CCCCOC(=O)N3CC[C@@](C(=O)N[C@@H](Cc4ccccc4F)C(=O)N[C@@H](Cc4csc5ccccc45)C(=O)N[C@@H](CCC(N)=O)C(N)=O)(C3)NC(=O)[C@H](Cc3ccccc3)NC(=O)[C@H](Cc3ccccc3)NC(=O)[C@H](C)NC(=O)[C@H](C)NC(=O)[C@H](CC(=O)O)NC(=O)[C@H](CC(=O)O)NC1=O)NC(=O)[C@H](CC(C)(C)C)NC(=O)[C@H](CC(=O)O)NC2=O (some centres unmarked) [I-1322]
u: nM
IC50: 11

molecule: CC(=O)N1CCC[C@]12CC=CCCCC1(CCCC=CCCCOC(=O)N3CC[C@@](C(=O)N[C@@H](Cc4ccccc4Cl)C(=O)N[C@@H](Cc4csc5ccccc45)C(=O)N[C@@H](CO)C(=O)N[C@H](CO)[C@@H](C)O)(C3)NC(=O)[C@H](CC(C)C)NC(=O)[C@H](Cc3ccccc3)NC(=O)[C@H](C)NC(=O)[C@H](C)NC(=O)[C@H](Cc3cccc(C(=O)O)c3)NC(=O)[C@H](CC(=O)O)NC1=O)NC(=O)[C@H](CC(C)(C)C)NC(=O)[C@H](CC(=O)O)NC2=O (some centres unmarked) [I-1905]
u: nM
IC50: 20

molecule: CC(=O)N1CCC[C@]12CC=CCCCC1(CCCC=CCCCOC(=O)N3CC[C@@](C(=O)N[C@@H](Cc4ccccc4Cl)C(=O)N[C@@H](Cc4csc5ccccc45)C(=O)N[C@@H](CCC(N)=O)C(N)=O)(C3)NC(=O)[C@H](CC(N)=O)NC(=O)[C@H](Cc3ccccc3)NC(=O)[C@H](C)NC(=O)[C@H](C)NC(=O)[C@H](CN(CC(=O)O)Cc3ccccc3)NC(=O)[C@H](CC(=O)O)NC1=O)NC(=O)[C@H](CC(C)(C)C)NC(=O)[C@H](CC(=O)O)NC2=O (some centres unmarked) [I-1447]
u: nM
IC50: 11

molecule: CC[C@H](C)[C@@H]1NC(=O)C[C@@H](CC(=O)O)NC(=O)[C@]2(CC=CCCCC3(CCCC=CCCCCCC[C@@](C)(C(=O)N[C@@H](Cc4ccccc4)C(=O)N[C@@H](Cc4csc5ccccc45)C(=O)N[C@@H](CCC(N)=O)C(N)=O)NC(=O)[C@H](CCC(N)=O)NC(=O)[C@H](Cc4ccccc4)NC(=O)[C@H](C)NC(=O)[C@H](C)NC(=O)[C@H](CCC(=O)O)NC(=O)[C@H](CC(=O)O)NC3=O)NC1=O)CCCN2C(C)=O (some centres unmarked) [I-672]
u: nM
IC50: 5000

molecule: CC[C@@H]1NC(=O)[C@H](CC(=O)O)NC(=O)[C@]2(CC=CCCCC3(CCCC=CCCCCCC[C@@](C)(C(=O)N[C@@H](Cc4ccccc4)C(=O)N[C@@H](Cc4csc5ccccc45)C(=O)N[C@@H](CCC(N)=O)C(N)=O)NC(=O)[C@H](CCC(N)=O)NC(=O)[C@H](Cc4ccccc4)NC(=O)[C@H](C)NC(=O)[C@H](C)NC(=O)[C@H](CCC(=O)O)NC(=O)[C@H](CC(=O)O)NC3=O)NC1=O)CCCN2C(C)=O (some centres unmarked) [I-569]
u: nM
IC50: 42
